- assay.text: Kinetic solubility of compound in phosphate buffer at pH 7.4 by UV analysis
- Type: physicochemical
- condition.set: read-out: Kinetic_solubility
Label scheme, based on solubility kinetic: LOW = under 20 µM, MEDIUM = from 20 µM up to 100 µM, HIGH = 100 µM and over

Here are 2 substances together with their reported answers.
Please report the category associated with H-RWVKRRDYRGDMGFDYWVWE-OH , nothing else.
HIGH

Please report the category associated with H-RWVARRDYRFDMGFNYWVWE-OH , nothing else.
MEDIUM

---
Please report the category associated with H-RWVARRDYRFDMGFDYWVWE-OH , nothing else.
LOW

Please report the category associated with H-RWVAREGGWFGELAFNYWVWE-OH , nothing else.
HIGH

Please report the category associated with H-RWVWRDLDIATTRDYWVWE-OH , nothing else.
HIGH

Please report the category associated with H-RWVARAYGNYGYIDVWHWE-OH , nothing else.
MEDIUM

Please report the category associated with H-RWVVRRDYRGDMGFDYWVWE-OH , nothing else.
MEDIUM

Please report the category associated with H-RWVARRDYRGDMGFDYWHWE-OH , nothing else.
MEDIUM

Please report the category associated with H-RWVARAYGNYWYIDVWHWE-OH , nothing else.
LOW

Please report the category associated with H-RWVAREGMNTDGYFDYWHWE-OH , nothing else.
HIGH

Please report the category associated with H-RGVARRDYRGDPGFDYWHWE-OH , nothing else.
HIGH
